Biological target: T1, human IL2Rα Fc fusion protein (human, UniProt P01589 22-213, limits assumed)
T1 construct: also called CD25; not shown: Fc part
T1 sequence (looked up): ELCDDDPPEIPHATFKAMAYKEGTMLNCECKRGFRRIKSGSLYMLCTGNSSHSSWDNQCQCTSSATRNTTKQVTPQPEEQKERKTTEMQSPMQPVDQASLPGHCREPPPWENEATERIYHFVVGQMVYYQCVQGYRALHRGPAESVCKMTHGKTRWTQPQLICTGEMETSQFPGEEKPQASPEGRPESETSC
Experiment: ELISA, single concentration, anti-flag detection, E. coli-produced clone
Reported Metric: OD450 nm (OD450)

Record excerpt, results attached:
EP583 (clone 2021EP16-H10), E. coli-produced (ligand) APASSSTKKTQLQLEHLLLDLQMILNGINNYKNPKLTRMLTFKFYMPKKATELKHLQCLEEELKPLEEVLNLAQSKNFHLSAIDLMSSVKVVVWKLKGSETTFMCEYADETATIVEFLNRWITFSQSIISTLT ... 0.749
EP571 (clone 2021EP22-H02), E. coli-produced (ligand) APASSSTKKTQLQLEHLLLDLQMILNGINNYKNPKLTRMLTFKFYMPKKATELKHLQCLEEELKPLEEVLNLAQSKNFHLRPSELMATMRVPVQALKGSETTFMCEYADETATIVEFLNRWITFSQSIISTLT ... 0.423
EP578 (clone 2021EP16-H02), E. coli-produced (ligand) APASSSTKKTQLQLEHLLLDLQMILNGINNYKNPKLTRMLTFKFYMPKKATELKHLQCLEEELKPLEEVLNLAQSKNFHLTTRDVVMTMARIDLELKGSETTFMCEYADETATIVEFLNRWITFSQSIISTLT ... 0.857
EP581 (clone 2021EP16-C10), E. coli-produced (ligand) APASSSTKKTQLQLEHLLLDLQMILNGINNYKNPKLTRMLTFKFYMPKKATELKHLQCLEEELKPLEEVLNLAQSKNFHLRSREVVSRIDAIILELKGSETTFMCEYADETATIVEFLNRWITFSQSIISTLT ... 0.88

[1] EP567 (clone 2021EP21-C04), E. coli-produced (ligand) APASSSTKKTQLQLEHLLLDLQMILNGINNYKNPKLTRMLTFKFYMPKKATELKHLQCLEEELKPLEEVLNLAQSKNFHLSLREPIGNIVTSVRELKGSETTFMCEYADETATIVEFLNRWITFSQSIISTLT
[2] EP570 (clone 2021EP21-E03), E. coli-produced (ligand) APASSSTKKTQLQLEHLLLDLQMILNGINNYKNPKLTRMLTFKFYMPKKATELKHLQCLEEELKPLEEVLNLAQSKNFHLSSSGLLGDVWVIVLDLKGSETTFMCEYADETATIVEFLNRWITFSQSIISTLT
Two entries are listed, 1 and 2 . Which one carries the higher OD450 nm? Answer by quoting the chosen item's label.
2
(2: 0.528 OD450, 1: 0.05 OD450)

Data provenance is patent US20250326813A1.
